Tested on: Escherichia coli IAI1
EXPERIMENT: fold change of Putrescine concentration vs plate DMSO controls (fold change (ratio)); higher = more amine produced, active = hit call of the paper (significant change in both replicates, either direction)
ASSAY CONDITIONS: incubation time: 27 h, anaerobic, 37 °C
Structures can show the parent of a compound that is named as a salt.
This listing pairs molecules with measured fold change of Putrescine concentration.

| MOLECULE | fold change of Putrescine concentration |
| --- | --- |
| OC(CNCC(O)C1CCc2cc(F)ccc2O1)C1CCc2cc(F)ccc2O1 (centres undefined) [Nebivolol hydrochloride] (20 µM) | 1.03 (inactive) |

Input line: Quote fold change of Putrescine concentration reported for CN1CCCN(C(c2ccccc2)c2ccc(Cl)cc2)CC1 (centres undefined) [Homochlorcyclizine dihydrochloride] (20 µM) please.
Output line: 1.03 (inactive)

Input line: Quote fold change of Putrescine concentration reported for CCCCOC(=O)c1ccc(N)cc1 [Butamben] (20 µM) please.
Output line: 0.935 (inactive)

Input line: Quote fold change of Putrescine concentration reported for CCCc1ncc(C[n+]2ccccc2C)c(N)n1 [Amprolium hydrochloride] (20 µM) please.
Output line: 0.995 (inactive)

Input line: Quote fold change of Putrescine concentration reported for Nc1nc2[nH]cc(CCc3ccc(C(=O)N[C@@H](CCC(=O)O)C(=O)O)cc3)c2c(=O)[nH]1 [Pemetrexed disodium] (20 µM) please.
Output line: 1.07 (inactive)

Input line: Quote fold change of Putrescine concentration reported for N=C(N)Nc1ccc(C(=O)Oc2ccc3cc(C(=N)N)ccc3c2)cc1 [Nafamostat Mesylate] (20 µM) please.
Output line: 1.04 (inactive)

Input line: Quote fold change of Putrescine concentration reported for CO[C@H]1/C=C/O[C@@]2(C)Oc3c(C)c(O)c4c(O)c(c5c(nc6cc(C)ccn65)c4c3C2=O)NC(=O)/C(C)=C\C=C\[C@H](C)[C@H](O)[C@@H](C)[C@@H](O)[C@@H](C)[C@H](OC(C)=O)[C@@H]1C [Rifaximin] (20 µM) please.
Output line: 0.996 (inactive)

Input line: Quote fold change of Putrescine concentration reported for Cc1cc(/C=C/c2ccc3cc(N(C)C)ccc3[n+]2C)c(C)n1-c1ccccc1 [Pyrvinium pamoate] (20 µM) please.
Output line: 1.22 (inactive)

Input line: Quote fold change of Putrescine concentration reported for CCOc1cc(N)c(Cl)cc1C(=O)NCC1CN(Cc2ccc(F)cc2)CCO1 (centres undefined) [Mosapride] (20 µM) please.
Output line: 0.985 (inactive)

Source: the supplement of paper PMC12494721
